Entries and their measured protein stability index follow.
protocolText: protein stability index of a GFP-peptide fusion (GPS, HEK-293T) (PSI 1-6); higher = more stable;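 note: 24-mer peptide tiles fused after GFP, lentivirally expressed, FACS-sorted into six equal bins by GFP/DsRed ratio, decoded by Illumina sequencing, PSI is the read-weighted mean bin number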
studyConditions: treatment: DMSO; c terminus: a fixed tail appended
reportedMetric: protein stability index

recordsequence="GVPPLKLCKNLNREAQQYSEALAS [GLIPR2]" assayvalue=3.89
recordsequence="SPESSRGQCGENLAWASYDQTGKE [GLIPR2]" assayvalue=4.8
recordsequence="ALWCAAGAGHFEVVKLLVSHGANV [FEM1B]" assayvalue=2.51
recordsequence="RGREAGPPQPMVPLAVENQAGGEG [PBXIP1]" assayvalue=5.27
recordsequence="DCDTSSICEDSFDGRSLSKLNLCE [SCARA5]" assayvalue=4.84
recordsequence="QPVDAIKLNLPDYHKIIKNPMDMG [BRD3]" assayvalue=3.12
recordsequence="ELEGDVAEPLAGPACVTVILPSCV [KLHL14]" assayvalue=3.32
